- Tested on: Balb/c mice
- protocol-text: Polypeptide chip-based vaccine immunogenicity scoring system
- Format: in vivo
- measurement-context: Embodiment III; polypeptide-KLH; value of the whole mix
- Procedure: Data distribution and characteristics thereof are analyzed based on a) and b), a polypeptide chip-based vaccine immunogenicity scoring system (referring to Table 7) is designed. 10 combinations are evaluated by the polypeptide chip-based vaccine immunogenicity scoring system. An evaluation method is consistent with that in Embodiment II. […] This embodiment is consistent with Embodiment II. Each combination is evaluated by the polypeptide chip-based vaccine immunogenicity scoring system. […]
C4: Percentage of the intersection in set B by entry:
reported-metric: C4: Percentage of the intersection in set B

[
  {
    "construct-sequence": "ETSNSFDVLKSE [SEQ ID NO:30]",
    "endpoint-result": 0.398
  },
  {
    "construct-sequence": "KLDDKDPNFK (SARS-CoV-2) [SEQ ID NO:20]",
    "endpoint-result": 0.275
  },
  {
    "construct-sequence": "EVFAQVKQIY (SARS-CoV-2) [SEQ ID NO:13]",
    "endpoint-result": 0.257
  },
  {
    "construct-sequence": "NLDSKVGGNYNY [SEQ ID NO:15]",
    "endpoint-result": 0.440
  },
  {
    "construct-sequence": "NVAKSEFDRDAA [SEQ ID NO:26]",
    "endpoint-result": 0.185
  },
  {
    "construct-sequence": "GTITVEELKK (SARS-CoV-2) [SEQ ID NO:39]",
    "endpoint-result": 0.189
  },
  {
    "construct-sequence": "MEVTPSGTWLTY (SARS-CoV-2) [SEQ ID NO:22]",
    "endpoint-result": 0.185
  },
  {
    "construct-sequence": "KVFRSSVLHSTQ [SEQ ID NO:6]",
    "endpoint-result": 0.257
  },
  {
    "construct-sequence": "ECVLGQSKR (SARS-CoV-2) [SEQ ID NO:10]",
    "endpoint-result": 1.053
  },
  {
    "construct-sequence": "YTNDKACPL (SARS-CoV-2) [SEQ ID NO:1]",
    "endpoint-result": 0.440
  },
  {
    "construct-sequence": "YGANKDGI (SARS-CoV-2) [SEQ ID NO:21]",
    "endpoint-result": 0.398
  },
  {
    "construct-sequence": "NSVAYSNNS (SARS-CoV-2) [SEQ ID NO:9]",
    "endpoint-result": 0.189
  },
  {
    "construct-sequence": "KRISNCVADY [SEQ ID NO:8]",
    "endpoint-result": 0.398
  }
]
